# Read-out: Interleukin-1 alpha (IL1a), IL1A (gene 3552)
# test description: BSK_KF3CT_IL1a: BioMAP Diversity Plus: KF3CT Assay for Interleukin-1 alpha (IL1a) Biomarker Activity (AID 2283070)
# condition notes: primary human keratinocytes with fibroblasts; actives raise or lower the signal
The source made the active and inactive calls. Rule for the calls: active = hit-call score of the fitted dose curve at least 0.9, where 1 is the maximum; inactive = score below 0.9.
Classes to choose from: 1 for active, -1 for inactive

For orientation, consider the following solved cases.
molecule: CCCOc1ccc(S(=O)(=O)N2CCN(CC)CC2)cc1-c1nc2c(CC)n(Cc3ccccn3)nc2c(=O)[nH]1
discrete label: -1

molecule: FC(F)(F)C(F)(F)C(F)(F)C(F)(F)C(F)(F)C(F)(F)I
discrete label: -1

molecule: c1ccc2ncccc2c1
discrete label: -1

molecule: CCCCCCCCCCCCCCCCOS(=O)(=O)O
discrete label: 1

molecule: OCc1ccccc1
discrete label: -1

# ---- query molecule ----
QUERY: So what was the verdict on CNC(C)=O in this test?
RESULT: -1
